Molecular target: IKZF1 ZNF2_ZNF3 Q1F degron-tagged CD19 CAR (Homo sapiens, UniProt Q13422, Q146F)
Construct: ZNF2_ZNF3 Q1F degron (GERPFFCNQCGASFTQKGNLLRHIKLHSGEKPFKCHLCNYACRRRDALTGHLRTHS); fused on or other part: anti-CD19 scFv, CD28 transmembrane domain, 4-1BB costimulatory domain, CD3 zeta signaling domain (the CAR that carries the degron), and Nluc
Sequence (Q13422 whole entry Q146F, the tested form may be a part): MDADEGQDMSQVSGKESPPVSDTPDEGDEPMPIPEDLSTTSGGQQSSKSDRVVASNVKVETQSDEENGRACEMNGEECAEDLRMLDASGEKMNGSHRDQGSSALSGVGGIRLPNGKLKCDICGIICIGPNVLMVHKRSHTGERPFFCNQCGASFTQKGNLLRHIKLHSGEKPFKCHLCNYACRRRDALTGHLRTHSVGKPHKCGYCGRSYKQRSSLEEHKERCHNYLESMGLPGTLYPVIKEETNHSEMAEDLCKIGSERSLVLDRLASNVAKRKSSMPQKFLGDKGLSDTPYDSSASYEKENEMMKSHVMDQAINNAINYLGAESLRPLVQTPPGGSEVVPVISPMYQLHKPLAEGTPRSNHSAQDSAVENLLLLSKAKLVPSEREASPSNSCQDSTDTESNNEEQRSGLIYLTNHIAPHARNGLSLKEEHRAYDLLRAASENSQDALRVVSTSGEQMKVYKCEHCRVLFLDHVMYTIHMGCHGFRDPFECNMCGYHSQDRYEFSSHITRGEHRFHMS
Experiment: Degradation of Q1F degron-tagged CD19 CAR in Jurkat cells (flow cytometry of CAR levels)
Format: cell-based
Settings: Jurkat cells expressing CD19 CAR tagged with IKZF1 ZNF2_ZNF3 Q1F; 18 hours at 37° C.; CAR levels normalized to untreated cells; read-out: Q1F Jurkat IC50
property.measured: DC50 (nM)

Record excerpt, results attached:
compound="O=C1CCC(N2Cc3c(cc(F)c(C4CCN(Cc5ccc(Cl)cc5)CC4)c3F)C2=O)C(=O)N1 (centres unmarked) [Compound 96]" assay_target="IKZF1 ZNF2_ZNF3 Q1F degron-tagged CD19 CAR (Homo sapiens, UniProt Q13422, Q146F)" uom=nM endpoint_result=4.17
compound="CS(=O)(=O)CCCN1CCC(c2c(F)cc3c(c2F)CN(C2CCC(=O)NC2=O)C3=O)CC1 (centres unmarked) [Compound 121]" assay_target="IKZF1 ZNF2_ZNF3 Q1F degron-tagged CD19 CAR (Homo sapiens, UniProt Q13422, Q146F)" uom=nM endpoint_result=20.4
compound="Cc1ccc(CN2CCC(c3c(F)cc4c(c3F)CN(C3CCC(=O)NC3=O)C4=O)CC2)cc1F (centres unmarked) [Compound 46]" assay_target="IKZF1 ZNF2_ZNF3 Q1F degron-tagged CD19 CAR (Homo sapiens, UniProt Q13422, Q146F)" uom=nM endpoint_result=0.112
compound="CC1(C)Cc2cccc(CN3CCN(Cc4c(F)cc5c(c4F)CN(C4CCC(=O)NC4=O)C5=O)CC3)c2O1 (centres unmarked) [Compound 75]" assay_target="IKZF1 ZNF2_ZNF3 Q1F degron-tagged CD19 CAR (Homo sapiens, UniProt Q13422, Q146F)" uom=nM endpoint_result=3.32
compound="O=C1CCC(N2Cc3c(cc(F)c(C4(O)CCN(Cc5ccc6nc[nH]c6c5)CC4)c3F)C2=O)C(=O)N1 (centres unmarked) [Compound 44]" assay_target="IKZF1 ZNF2_ZNF3 Q1F degron-tagged CD19 CAR (Homo sapiens, UniProt Q13422, Q146F)" uom=nM endpoint_result=120

1. Cc1ccc(CCN2CCC(c3c(F)cc4c(c3F)CN(C3CCC(=O)NC3=O)C4=O)CC2)cc1 (centres unmarked) [Compound 111]
2. O=C1CCC(N2Cc3c(cc(F)c(C4CCN(CC5CCCC5)CC4)c3F)C2=O)C(=O)N1 (centres unmarked) [Compound 112]
Please indicate which has the smaller reported DC50: 1 , or 2 . // return label of chosen record
2
(2: 3.23 nM, 1: 7.45 nM)

----------
Biological target: IKZF1 ZNF2_ZNF3 Q1F degron-tagged CD19 CAR (Homo sapiens, UniProt Q13422, Q146F)
Construct: ZNF2_ZNF3 Q1F degron (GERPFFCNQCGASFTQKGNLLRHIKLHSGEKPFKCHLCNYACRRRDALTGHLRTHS); fused on or other part: anti-CD19 scFv, CD28 transmembrane domain, 4-1BB costimulatory domain, CD3 zeta signaling domain (the CAR that carries the degron), and Nluc
Assay: Degradation of Q1F degron-tagged CD19 CAR in Jurkat cells (flow cytometry of CAR levels)
Assay type: cell-based
Conditions: Jurkat cells expressing CD19 CAR tagged with IKZF1 ZNF2_ZNF3 Q1F; 18 hours at 37° C.; CAR levels normalized to untreated cells; read-out: Q1F Jurkat IC50
property.measured: DC50 (nM)

Record excerpt, results attached:
molecule="O=C1CCC(N2Cc3c(cc(F)c(CNC(=O)c4ccc5c(c4)CCC5)c3F)C2=O)C(=O)N1 (stereo not shown)" endpoint_result=9.16
molecule="O=C1CCC(N2Cc3c(cc(F)c(C4CCN(Cc5ccsc5)CC4)c3F)C2=O)C(=O)N1 (stereo not shown)" endpoint_result=5
molecule="O=C1CCC(N2Cc3c(cc(F)c(C4CCN(Cc5cccc6ncsc56)CC4)c3F)C2=O)C(=O)N1 (stereo not shown)" endpoint_result=2.11
molecule="Cc1ccc(CN2CCC(O)(c3c(F)cc4c(c3F)CN(C3CCC(=O)NC3=O)C4=O)CC2)cc1 (stereo not shown)" endpoint_result=17.2
molecule="Cc1cc(-c2cc3c(cc2F)C(=O)N(C2CCC(=O)NC2=O)C3)nc(N)c1C (stereo not shown)" endpoint_result=7.43

I. Cc1cc(Br)cnc1C(=O)N1CCC(c2c(F)cc3c(c2F)CN(C2CCC(=O)NC2=O)C3=O)CC1 (stereo not shown)
II. O=C1CCC(N2Cc3cc(C4CCN(Cc5ccc6cn[nH]c6c5)CC4)c(F)cc3C2=O)C(=O)N1 (stereo not shown)
III. C[C@@H](CO)CN1CCC(c2c(F)cc3c(c2F)CN(C2CCC(=O)NC2=O)C3=O)CC1 (mixture of isomers)
Please produce an ascending ranking of these molecules based on DC50. Would you mind listing the labels in the order asked for?
II, III, I
(II: 4.06 nM, III: 8.65 nM, I: 46.1 nM)

a. CN(C)CCCOc1ccc(CN2CCC(c3c(F)cc4c(c3F)CN(C3CCC(=O)NC3=O)C4=O)CC2)cc1 (stereo not shown)
b. O=C1CCC(N2Cc3cc(C4CCN(Cc5ccc6scnc6c5)CC4)c(F)cc3C2=O)C(=O)N1 (stereo not shown)
Please indicate which has the smaller reported DC50: a , or b . // return label of chosen record
b
(b: 1.94 nM, a: 3.66 nM)

a. Cc1cc(-c2cc(F)c3c(c2)CN(C2CCC(=O)NC2=O)C3=O)nc(N)c1C (stereo not shown)
b. CN(C)c1ccc(CN2CCC(c3c(F)cc4c(c3F)CN(C3CCC(=O)NC3=O)C4=O)CC2)cc1 (stereo not shown)
Consider a and b . Which of these has its DC50 at a higher number? // return label of chosen record
a

I. O=C1CCC(N2Cc3c(cc(F)c(CN4CCN(Cc5ccc6c(c5)OCCO6)CC4)c3F)C2=O)C(=O)N1 (stereo not shown)
II. Cc1cc(CN2CCC(c3c(F)cc4c(c3F)CN(C3CCC(=O)NC3=O)C4=O)CC2)nn1C (stereo not shown)
Consider I and II . Which of these has its DC50 at a higher number? // return label of chosen record
I

Recorded values, source patent US20240327381A1.
